- study-target: Gal(b1-3)GlcNAc(b1-3)Gal(b1-4)[Fuc(a1-3)]GlcNAc
- assay-overview: glycan array binding signal (z-score within array); higher = stronger binding
- experimental-parameters: glycan notation: IUPAC condensed, linker removed
About 410 targets per protein were measured; listed, in parts, are those with the strongest signals and a random draw of the rest.
# maps each entry to its glycan array binding signal (z-score)

binder: HPL (Tachypleus tridentatus) (protein) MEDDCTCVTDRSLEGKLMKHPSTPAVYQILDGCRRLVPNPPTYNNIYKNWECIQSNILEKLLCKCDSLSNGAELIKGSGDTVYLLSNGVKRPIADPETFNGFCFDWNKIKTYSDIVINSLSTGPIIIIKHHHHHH
glycan array binding signal (z-score): -0.309

binder: SP15308B-bot-339-22-339 (Bacteroides ovatus) (protein) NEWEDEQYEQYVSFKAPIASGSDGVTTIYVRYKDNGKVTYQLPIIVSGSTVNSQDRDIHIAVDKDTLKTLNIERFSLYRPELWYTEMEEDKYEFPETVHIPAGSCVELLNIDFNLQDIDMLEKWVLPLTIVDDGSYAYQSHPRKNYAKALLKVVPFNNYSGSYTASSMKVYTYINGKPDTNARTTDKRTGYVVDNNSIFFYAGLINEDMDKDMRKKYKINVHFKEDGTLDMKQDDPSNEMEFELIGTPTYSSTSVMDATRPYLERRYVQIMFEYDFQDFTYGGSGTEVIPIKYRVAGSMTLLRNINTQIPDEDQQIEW
glycan array binding signal (z-score): -0.548

binder: SP8524D-bot-399-27-399 (Bacteroides ovatus) (protein) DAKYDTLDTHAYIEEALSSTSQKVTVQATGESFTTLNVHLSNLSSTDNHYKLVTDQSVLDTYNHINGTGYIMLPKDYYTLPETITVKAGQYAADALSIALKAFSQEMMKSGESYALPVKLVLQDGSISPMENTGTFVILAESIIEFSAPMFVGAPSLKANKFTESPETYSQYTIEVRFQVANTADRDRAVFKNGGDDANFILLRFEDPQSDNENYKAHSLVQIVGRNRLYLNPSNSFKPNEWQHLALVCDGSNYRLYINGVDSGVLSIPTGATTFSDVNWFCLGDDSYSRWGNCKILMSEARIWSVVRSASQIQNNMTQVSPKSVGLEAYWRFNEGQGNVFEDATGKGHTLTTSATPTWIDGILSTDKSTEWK
glycan array binding signal (z-score): -0.174

binder: Banana lectin (Musa acuminata) (protein) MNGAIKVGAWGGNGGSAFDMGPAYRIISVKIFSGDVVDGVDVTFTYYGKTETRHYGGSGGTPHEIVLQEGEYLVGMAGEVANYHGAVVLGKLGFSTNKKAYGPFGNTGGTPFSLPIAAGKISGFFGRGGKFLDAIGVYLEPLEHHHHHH
glycan array binding signal (z-score): -0.216

binder: LICBM33A (Lactococcus lactis), Q9CE94 (protein) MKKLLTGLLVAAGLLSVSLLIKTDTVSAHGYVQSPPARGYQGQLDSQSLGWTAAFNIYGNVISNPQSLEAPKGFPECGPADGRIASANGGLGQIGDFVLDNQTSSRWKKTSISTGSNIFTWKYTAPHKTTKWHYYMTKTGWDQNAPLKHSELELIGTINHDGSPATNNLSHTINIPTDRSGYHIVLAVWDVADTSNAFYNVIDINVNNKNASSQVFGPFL
glycan array binding signal (z-score): -0.324
